Target: human recombinant CB1 receptors (Homo sapiens, UniProt P21554)
Sequence (P21554 whole entry): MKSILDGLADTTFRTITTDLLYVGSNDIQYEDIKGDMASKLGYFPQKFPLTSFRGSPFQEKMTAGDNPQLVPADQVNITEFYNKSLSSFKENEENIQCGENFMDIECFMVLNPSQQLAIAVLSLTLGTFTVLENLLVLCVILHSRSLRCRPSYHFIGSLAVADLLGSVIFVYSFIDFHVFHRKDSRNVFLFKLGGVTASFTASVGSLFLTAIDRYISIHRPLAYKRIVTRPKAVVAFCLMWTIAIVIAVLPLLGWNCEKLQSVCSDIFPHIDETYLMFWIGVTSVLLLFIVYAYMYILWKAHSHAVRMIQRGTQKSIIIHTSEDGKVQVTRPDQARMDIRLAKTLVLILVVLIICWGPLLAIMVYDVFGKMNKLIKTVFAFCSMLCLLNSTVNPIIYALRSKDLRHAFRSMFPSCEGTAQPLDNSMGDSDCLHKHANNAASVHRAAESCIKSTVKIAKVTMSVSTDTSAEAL
Assay: Radioligand binding to human recombinant CB1 receptors in CHO cell membranes
Classify: criterion met when Ki is strictly less than 1 nM; criterion not met when Ki is not.

Ask | Input CCCCCn1cc(C(=O)NC(C(N)=O)C(C)(C)C)c2ccccc21 (centres unmarked) ; condition: Ki strictly below 1 nM. Does it hold?
Reply | criterion not met

Ask | Same question, `CCCCCn1cc(C(=O)c2ccc(C)c3ccccc23)c2ccccc21` this time
Reply | criterion not met

Ask | Next up: CCCCCn1nc(C(=O)NC(C(N)=O)C(C)(C)C)c2ccccc21 (centres unmarked)
Reply | criterion met

Ask | Next record, please: `CCCCCn1cc(C(=O)c2ccc(OC)cc2)c2ccccc21`
Reply | criterion not met

----------
Molecular target: human CB1 cannabinoid receptors (Homo sapiens, UniProt P21554)
Test: Gi agonist effect: cAMP functional assay in CHO cells expressing CB1
pEC50: −log10 of the molar value.
Classification field: YES = pEC50 at or over 9; NO = pEC50 under 9.

Ask | Can CCCCCn1nc(C(=O)NC(C(N)=O)C(C)(C)C)c2ccccc21 (stereo not drawn) [ADB-PINACA] be said to have pEC50 at or above 9?
Reply | YES

Ask | Could you do the same for CCCCCn1cc(C(=O)c2ccc(C)c3ccccc23)c2ccccc21 [JWH-122] , please?
Reply | NO

Ask | Proceed to CCCCCn1cc(C(=O)c2ccc(CC)c3ccccc23)c2ccccc21 [JWH-210]
Reply | NO

Ask | Another compound to look at: CCCCCn1cc(C(=O)NC(C(N)=O)C(C)(C)C)c2ccccc21 (stereo not drawn) [ADBICA]
Reply | YES

Ask | Now the compound CCCCCn1cc(C(=O)c2ccc(OC)cc2)c2ccccc21 [RCS-4]
Reply | NO
